- Test system: Human primary T cells
- assay.info: IL-2 ELISA, human primary T cell, anti-CD3+CD28+ (whole cell assay)
- Type: cell-based
- test.context: Homo sapiens, T-cell, 24 h, human primary T cells stimulated with anti-CD3 + anti-CD28, 24 hours
Structures can show the parent of a compound that is named as a salt.
Assign IC50 to each entry below.

### Prompt Query IC50 for CC1(C)CC(Nc2nc(Nc3cccc(-c4nnnn4CCF)c3)ncc2F)CC(C)(C)N1
### Response 500 to 1000 nM

### Prompt Query IC50 for CC(C)N1CCC(Oc2ccc(Nc3ncc(F)c(NC4CC(C)(C)N(C)C(C)(C)C4)n3)cc2OC(F)F)C(F)C1 (stereo not shown) [III-103, trifluoroacetate salt]
### Response 250 to 500 nM

### Prompt Query IC50 for CC1(C)CC(Nc2nc(Nc3ccc(OCCn4ccnn4)c(OC(F)F)c3)ncc2C#N)CC(C)(C)N1
### Response 500 to 1000 nM

### Prompt Query IC50 for CC1(C)CC(Nc2nc(Nc3ccc(OCCCn4cccc4)c(OC(F)F)c3)ncc2F)CC(C)(C)N1
### Response < 250 nM

### Prompt Query IC50 for CC1(C)CC(Nc2nc(Nc3ccc(OC4CCNCC4)c(OC(F)F)c3)ncc2F)CC(C)(C)N1
### Response > 1000 nM

### Prompt Query IC50 for Cc1ccn(-c2cccc(Nc3ncc(F)c(NC4CC(C)(C)N(C)C(C)(C)C4)n3)c2)n1
### Response > 1000 nM

### Prompt Query IC50 for Cn1nnnc1-c1cc(Nc2ncc(F)c(NC3CC(C)(C)NC(C)(C)C3)n2)cc(C2CC2)c1
### Response < 250 nM

====

- Tested on: Human primary T cells
- assay.info: IL-2 ELISA, human primary T cell, anti-CD3+CD28+ (whole cell assay)
- Type: cell-based
- test.context: Homo sapiens, T-cell, 24 h, human primary T cells stimulated with anti-CD3 + anti-CD28, 24 hours
Structures can show the parent of a compound that is named as a salt.
Assign IC50 to each entry below.

### Prompt Query IC50 for CN1C(C)(C)CC(Nc2nc(Nc3ccc(OC4CCN(CCF)CC4)c(Cl)c3)ncc2F)CC1(C)C
### Response < 250 nM

### Prompt Query IC50 for [2H]C([2H])([2H])N1C(C)(C)CC(Nc2nc(Nc3cccc(-n4cnnn4)c3)ncc2F)CC1(C)C
### Response < 250 nM

### Prompt Query IC50 for Cc1nnnn1-c1cc(Nc2ncc(C#N)c(NC3CC(C)(C)NC(C)(C)C3)n2)ccc1F
### Response 250 to 500 nM

### Prompt Query IC50 for CN1C(C)(C)CC(Nc2nc(Nc3ccc(Oc4ccncc4)c(OC(F)F)c3)ncc2F)CC1(C)C
### Response > 1000 nM

### Prompt Query IC50 for [2H]C([2H])([2H])N1C(C)(C)CC(Nc2nc(Nc3cccc(-n4nnnc4C)c3)ncc2F)CC1(C)C
### Response < 250 nM

### Prompt Query IC50 for CC(C)N1CCC(Oc2ccc(Nc3ncc(F)c(NC4CC(C)(C)NC(C)(C)C4)n3)cc2OC(F)F)C(F)C1 (stereo not drawn) [III-104, trifluoroacetate salt]
### Response 500 to 1000 nM

### Prompt Query IC50 for Cn1nnnc1-c1cc(Nc2ncc(F)c(NC3CC(C)(C)NC(C)(C)C3)n2)ccc1F
### Response 500 to 1000 nM

### Prompt Query IC50 for CC(C)Oc1ncc(Nc2ncc(C(N)=O)c(NC3CC(C)(C)N(C)C(C)(C)C3)n2)cc1-c1nnnn1C
### Response > 1000 nM

### Prompt Query IC50 for CN1C(C)(C)CC(Nc2nc(Nc3ccc(OC4CCOCC4)c(-c4nnnn4C)c3)ncc2F)CC1(C)C
### Response 250 to 500 nM

### Prompt Query IC50 for CN1C(C)(C)CC(Nc2nc(Nc3cc(F)c(OC(C)(C)CCN4CCCC4)c(F)c3)ncc2F)CC1(C)C
### Response > 1000 nM

### Prompt Query IC50 for CC(=O)N1CCC(Oc2c(F)cc(Nc3ncc(F)c(NC4CC(C)(C)N(C)C(C)(C)C4)n3)cc2F)CC1
### Response 500 to 1000 nM

### Prompt Query IC50 for CN1C(C)(C)CC(Nc2nc(Nc3ccc4c(c3)OCC(CN3CCCCC3)O4)ncc2F)CC1(C)C (stereo not drawn)
### Response > 1000 nM

### Prompt Query IC50 for CC(C)Oc1c(F)cc(Nc2ncc(F)c(NC3CC(C)(C)NC(C)(C)C3)n2)cc1-c1nnnn1C
### Response 250 to 500 nM

### Prompt Query IC50 for CN1C(C)(C)CC(Nc2nc(Nc3cccc(-n4cncn4)c3)ncc2F)CC1(C)C
### Response 500 to 1000 nM

### Prompt Query IC50 for CCNC(=O)N1CCCC(Oc2ccc(Nc3ncc(F)c(NC4CC(C)(C)NC(C)(C)C4)n3)cc2OC(F)F)CC1 (stereo not drawn)
### Response > 1000 nM

====

- System: Human primary T cells
- assay.info: IL-2 ELISA, human primary T cell, anti-CD3+CD28+ (whole cell assay)
- Assay type: cell-based
- test.context: Homo sapiens, T-cell, 24 h, human primary T cells stimulated with anti-CD3 + anti-CD28, 24 hours
readout: IC50

### Prompt Query IC50 for CN1C(C)(C)CC(Nc2nc(Nc3cc(C#N)cc(-c4nnnn4C)c3)ncc2F)CC1(C)C
### Response < 250 nM

### Prompt Query IC50 for CC1(C)CC(Nc2nc(Nc3ccc(OCCCN4CCOCC4)c(OC(F)F)c3)ncc2F)CC(C)(C)N1
### Response 500 to 1000 nM

### Prompt Query IC50 for Cc1nnnn1-c1cc(Nc2ncc(F)c(NC3CC(C)(C)N(C)C(C)(C)C3)n2)ccc1OC(F)(F)F
### Response < 250 nM

### Prompt Query IC50 for CC(=O)N1CCC(Oc2ccc(Nc3ncc(F)c(NC4CC(C)(C)N(C)C(C)(C)C4)n3)cc2OC(F)F)CC1
### Response 250 to 500 nM

====

- Tested on: Human primary T cells
- assay.info: IL-2 ELISA, human primary T cell, anti-CD3+CD28+ (whole cell assay)
- Type: cell-based
- test.context: Homo sapiens, T-cell, 24 h, human primary T cells stimulated with anti-CD3 + anti-CD28, 24 hours
readout: IC50

### Prompt Query IC50 for CC(=O)N1CCC(Oc2c(F)cc(Nc3ncc(F)c(NC4CC(C)(C)NC(C)(C)C4)n3)cc2F)CC1 [III-92]
### Response > 1 µM

### Prompt Query IC50 for CC(=O)N1C(C)(C)CC(Nc2nc(Nc3ccc(OC4CCN(C(C)C)CC4)c(OC(F)F)c3)ncc2F)CC1(C)C [III-4]
### Response > 1 µM

### Prompt Query IC50 for CC1(C)CC(Nc2nc(Nc3cccc(-c4nn[nH]n4)c3)ncc2F)CC(C)(C)N1 [III-69]
### Response > 1 µM

### Prompt Query IC50 for CN1C(C)(C)CC(Nc2nc(Nc3ccc(OC4CCN(CCO)CC4)c(OC(F)F)c3)ncc2F)CC1(C)C [III-37]
### Response < 0.25 µM

### Prompt Query IC50 for CC(C)N1CCC(Oc2ccc(Nc3ncc(F)c(NC4CC(C)(C)NC(C)(C)C4)n3)cc2OC(F)F)C(F)(F)C1 (stereo not drawn) [III-108]
### Response 0.5 to 1 µM

### Prompt Query IC50 for CN1C(C)(C)CC(Nc2nc(Nc3ccc(OC4COC4)c(-c4nnnn4C)c3)ncc2F)CC1(C)C [III-127]
### Response < 0.25 µM

### Prompt Query IC50 for CC(C)Oc1ncc(Nc2ncc(C#N)c(NC3CC(C)(C)N(C)C(C)(C)C3)n2)cc1-c1nnnn1C [Compound I-129]
### Response 0.5 to 1 µM

### Prompt Query IC50 for CC(C)N1CCC(Oc2ccc(Nc3ncc(F)c(NC4CC(C)(C)NC(C)(C)C4)n3)cc2Cl)CC1 [III-98]
### Response < 0.25 µM

### Prompt Query IC50 for Cn1nnnc1-c1cc(Cl)cc(Nc2ncc(F)c(NC3CC(C)(C)NC(C)(C)C3)n2)c1 [III-134]
### Response < 0.25 µM

### Prompt Query IC50 for CN1C(C)(C)CC(Nc2nc(Nc3cc(F)cc(-c4nnnn4C)c3)ncc2F)CC1(C)C [III-139]
### Response < 0.25 µM

### Prompt Query IC50 for CC(C)Oc1ccc(Nc2ncc(F)c(NC3CC(C)(C)NC(C)(C)C3)n2)cc1-c1nnnn1C [III-122]
### Response < 0.25 µM

### Prompt Query IC50 for CC1(C)CC(Nc2nc(Nc3ccc(OCCN4CCOCC4)c(OC(F)F)c3)ncc2F)CC(C)(C)N1 [Compound I-120]
### Response > 1 µM

### Prompt Query IC50 for CCOc1ccc(Nc2ncc(F)c(NC3CC(C)(C)N(C)C(C)(C)C3)n2)cc1OC(F)F [Compound I-109]
### Response < 0.25 µM

### Prompt Query IC50 for CN1C(C)(C)CC(Nc2nc(Nc3cnc(OCCN4CCCC4)c(OC(F)F)c3)ncc2F)CC1(C)C [Compound I-142]
### Response > 1 µM

### Prompt Query IC50 for CN1C(C)(C)CC(Nc2nc(Nc3ccc(Oc4ccncc4)c(OC(F)F)c3)ncc2C#N)CC1(C)C [Compound I-53]
### Response > 1 µM

### Prompt Query IC50 for CN1C(C)(C)CC(Nc2nc(Nc3ccc(OCCCN4CCOCC4)c(OC(F)F)c3)ncc2F)CC1(C)C [Compound I-48]
### Response < 0.25 µM

### Prompt Query IC50 for Cn1nnnc1-c1cc(Nc2ncc(F)c(NC3CC(C)(C)NC(C)(C)C3)n2)ccc1OC1COC1 [III-126]
### Response > 1 µM

### Prompt Query IC50 for CC1(C)CC(Nc2nc(Nc3cc(F)cc(OCCN4CCCC4=O)c3)ncc2F)CC(C)(C)N1 [Compound I-37]
### Response > 1 µM

### Prompt Query IC50 for CC(C)N1CCCC(Oc2ccc(Nc3ncc(F)c(NC4CC(C)(C)NC(C)(C)C4)n3)cc2OC(F)F)CC1 (stereo not drawn) [III-40]
### Response 0.25 to 0.5 µM

### Prompt Query IC50 for CC1(C)CC(Nc2nc(Nc3ccc4c(c3)OCC(C(=O)N3CCCCC3)O4)ncc2F)CC(C)(C)N1 (stereo not drawn) [II-3]
### Response > 1 µM

### Prompt Query IC50 for CN1C(C)(C)CC(Nc2nc(Nc3ccc(OC4CCN(CCF)CC4)c(OC(F)F)c3)ncc2F)CC1(C)C [III-51]
### Response < 0.25 µM

### Prompt Query IC50 for CC(C)Oc1ccc(Nc2ncc(F)c(NC3CC(C)(C)N(C)C(C)(C)C3)n2)cc1-c1nnnn1C [III-123]
### Response < 0.25 µM

### Prompt Query IC50 for CN1C(C)(C)CC(Nc2nc(Nc3cc(OC(F)F)cc(C(F)(F)F)c3)ncc2F)CC1(C)C [Compound I-107]
### Response 0.25 to 0.5 µM

### Prompt Query IC50 for Cn1nnnc1-c1cc(Nc2ncc(F)c(NC3CC(C)(C)NC(C)(C)C3)n2)cc(C(F)(F)F)c1 [III-140]
### Response < 0.25 µM

### Prompt Query IC50 for CN1C(C)(C)CC(Nc2nc(Nc3ccc(C4CC4)c(-n4cnnn4)c3)ncc2F)CC1(C)C [III-119]
### Response < 0.25 µM

### Prompt Query IC50 for CC1(C)CC(Nc2nc(Nc3ccc(O[C@H]4CCOC4)c(OC(F)F)c3)ncc2F)CC(C)(C)N1 [III-100]
### Response 0.25 to 0.5 µM

### Prompt Query IC50 for CC1(C)CC(Nc2nc(Nc3ccc4c(c3)OCC(CN3CCOCC3)O4)ncc2F)CC(C)(C)N1 (stereo not drawn) [II-8]
### Response > 1 µM

### Prompt Query IC50 for CN1C(C)(C)CC(Nc2nc(Nc3cc(OCCn4cncn4)cc(C(F)(F)F)c3)ncc2F)CC1(C)C [Compound I-29]
### Response 0.5 to 1 µM

### Prompt Query IC50 for CN1C(C)(C)CC(Nc2nc(Nc3cc(F)c(OC4CCN(CCOCc5ccccc5)CC4)c(F)c3)ncc2F)CC1(C)C [III-56]
### Response 0.5 to 1 µM

### Prompt Query IC50 for CC(C)N1CC[C@H](Oc2ccc(Nc3ncc(F)c(NC4CC(C)(C)N(C)C(C)(C)C4)n3)cc2OC(F)F)C1 [Compound I-149]
### Response < 0.25 µM

Data credit: patent US9149475B2
